Below: a set of entries, each annotated with reported Kq, bimolecular quenching rate constant.
# target entity: human serum albumin (HSA) (Homo sapiens, UniProt P02768)
# Construct: purchased Sigma (St. Louis, MO, USA)
# Sequence (P02768 25-609): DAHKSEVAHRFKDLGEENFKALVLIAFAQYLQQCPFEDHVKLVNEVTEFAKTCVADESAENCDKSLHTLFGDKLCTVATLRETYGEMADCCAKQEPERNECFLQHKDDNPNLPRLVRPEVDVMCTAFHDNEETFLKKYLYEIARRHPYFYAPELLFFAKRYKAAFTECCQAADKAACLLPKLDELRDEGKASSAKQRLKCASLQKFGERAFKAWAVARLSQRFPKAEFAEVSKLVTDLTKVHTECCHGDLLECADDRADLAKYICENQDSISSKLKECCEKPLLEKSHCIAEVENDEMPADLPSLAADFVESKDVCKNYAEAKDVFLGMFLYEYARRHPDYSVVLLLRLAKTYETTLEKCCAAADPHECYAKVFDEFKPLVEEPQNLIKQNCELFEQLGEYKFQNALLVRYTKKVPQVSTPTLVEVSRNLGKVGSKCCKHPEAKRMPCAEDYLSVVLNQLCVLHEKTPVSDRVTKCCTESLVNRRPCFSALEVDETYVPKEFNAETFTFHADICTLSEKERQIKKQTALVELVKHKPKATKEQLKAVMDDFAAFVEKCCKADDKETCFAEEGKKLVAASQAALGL
# protocol: HSA fluorescence quenching (steady-state fluorescence titration)
# Type: binding
# measurement setup: 30 °C
outcome measure: Kq, bimolecular quenching rate constant (M⁻¹ s⁻¹)

{"smiles text": "O=C(N/N=C/c1cccc2cc3ccccc3nc12)c1ccc(Br)cc1", "meas value": "2.06e+13"}
{"smiles text": "O=C(N/N=C/c1cccc2cc3ccccc3nc12)c1ccccc1", "meas value": "2.68e+13"}
{"smiles text": "O=C(N/N=C/c1cccc2cc3ccccc3nc12)c1ccc(F)cc1", "meas value": "1.57e+13"}
{"smiles text": "O=C(N/N=C/c1cccc2cc3ccccc3nc12)c1ccc(Cl)cc1", "meas value": "2.48e+13"}

Origin of the recorded values: paper PMC9100673
